target: T1, MUC16 nonglycosylated peptide 2 (human); test: sandwich ELISA on 'MUC16 Nonglycosylated Peptide2'; Blank 0.029
T1 construct: Peptide used to elicit the 4H11 antibody; also called nonglycosylated MUC16 peptide 2
T1 peptide: CTLDRSSVLVDGYSPNRNE
ENDPOINT_LABEL: ELISA signal
Output: the number by itself.

Suppose we examine the binder 7B12.B3 (antibody, V domains shown, Mouse monoclonal from a hybridoma; also called MUC16 Glycosylation Antibody 7B12) VH: QVTLKESGPGILQPSQTLSLTCSFSGFSLSTVGMGVGWSRQPSGKGLEWLAHIWWDDEDKYYNPALKSRLTISKDTSKNQVFLKIANVDTADSATYYCTRIGTAQATDALDYWGQGTSVTVSS VL: DIVMTQAAPSVSVTPGESVSISCRSSKSLRKSNGNTYLYWFLQRPGQSPQRLIYYMSNLASGVPDRFSGRGSGTDFTLRISRVEAEDVGVYYCMQSLEYPLTFGGGTKLKIK ; what ELISA signal value has been reported? 0.02

Suppose we examine the binder 18C6.D12 (antibody, V domains shown, Mouse monoclonal from a hybridoma; also called MUC16 Glycosylation Antibody 18C6) VH: QVTLKESGPGILQPSQTLSLTCSFSGFSLSTVGMGVGWSRQPSGKGLEWLAHIWWDDEDKYYNPALKSRLTISKDTSKNQVFLKIANVDTADTATYYCTRIGTAQATDALDYWGQGTSVTVSS VL: DIVMTQAAPSVPVTPGESVSISCRSSKSLLHSNGNTYLYWFLQRPGQSPQRLIYYMSNLASGVPDRFSGRGSGTDFTLRISRVEAEDVGVYYCMQSLEYPLTFGGGTKLEIK ; what ELISA signal value has been reported? 0.02

Suppose we examine the binder 19C11.H6 (antibody, V domains shown, Mouse monoclonal from a hybridoma; Used as 89Zr-DFO-labelled antibody in the internalization assay; also called MUC16 Glycosylation Antibody 19C11) VH: QVNLKESGPGKLQPSQTLSLTCSFSGFSLSTLGMGVGWIRQSSGKGLEWLAHIWWDDDKYYNPALKSRLTISRATSKNQVFLKIVNVGTADTATYYCARIGTAQATDALDYWGQGTSVTVSS VL: DIVMTQAAPSIPVTPGESVSISCRSSKSLLHSNGNTYLYWFLQRPGQSPQRLIYYMSNLASGVPDRFSGRGSGTDFTLKISRVEAGDVGVYYCMQGLEHPLTFGGGTKLEIK ; what ELISA signal value has been reported? 0.03
